tgt: glucosylceramide synthase (GCS) (Mus musculus)
Construct: IC50 values for GCS activity were measured using living cells; endogenous in cells
Sequence (O88693 whole entry): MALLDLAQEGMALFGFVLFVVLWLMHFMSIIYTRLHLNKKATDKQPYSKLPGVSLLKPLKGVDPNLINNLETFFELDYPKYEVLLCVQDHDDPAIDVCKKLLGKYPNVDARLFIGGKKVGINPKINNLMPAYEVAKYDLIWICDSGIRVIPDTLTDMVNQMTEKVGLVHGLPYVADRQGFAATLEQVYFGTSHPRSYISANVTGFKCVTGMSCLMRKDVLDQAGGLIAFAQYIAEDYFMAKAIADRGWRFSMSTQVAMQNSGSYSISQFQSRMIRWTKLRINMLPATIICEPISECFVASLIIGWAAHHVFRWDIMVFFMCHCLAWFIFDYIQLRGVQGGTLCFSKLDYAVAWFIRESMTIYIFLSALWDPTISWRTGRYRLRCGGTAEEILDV
test.summary: GCS activity in living macrophage  cells (C6-NBD lipid, TLC readout)
Type: cell-based
run.conditions: read-out: inhibitory potency towards GCS, expressed as IC50
pIC50: −log10 of the molar value.

chemical.structure: C[C@H](OCCCCCN1C[C@H](O)[C@@H](O)[C@H](O)[C@H]1CO)c1ccc(-c2ccccc2)cc1
pIC50: 7.00

###

tgt: GBA2 (Homo sapiens, UniProt Q9HCG7)
Construct: measured using a membrane fraction obtained from Gaucher spleen; from tissue; host or cells: membrane fraction of Gaucher spleen, pre-treated with conduritol B-epoxide
Sequence (Q9HCG7 whole entry): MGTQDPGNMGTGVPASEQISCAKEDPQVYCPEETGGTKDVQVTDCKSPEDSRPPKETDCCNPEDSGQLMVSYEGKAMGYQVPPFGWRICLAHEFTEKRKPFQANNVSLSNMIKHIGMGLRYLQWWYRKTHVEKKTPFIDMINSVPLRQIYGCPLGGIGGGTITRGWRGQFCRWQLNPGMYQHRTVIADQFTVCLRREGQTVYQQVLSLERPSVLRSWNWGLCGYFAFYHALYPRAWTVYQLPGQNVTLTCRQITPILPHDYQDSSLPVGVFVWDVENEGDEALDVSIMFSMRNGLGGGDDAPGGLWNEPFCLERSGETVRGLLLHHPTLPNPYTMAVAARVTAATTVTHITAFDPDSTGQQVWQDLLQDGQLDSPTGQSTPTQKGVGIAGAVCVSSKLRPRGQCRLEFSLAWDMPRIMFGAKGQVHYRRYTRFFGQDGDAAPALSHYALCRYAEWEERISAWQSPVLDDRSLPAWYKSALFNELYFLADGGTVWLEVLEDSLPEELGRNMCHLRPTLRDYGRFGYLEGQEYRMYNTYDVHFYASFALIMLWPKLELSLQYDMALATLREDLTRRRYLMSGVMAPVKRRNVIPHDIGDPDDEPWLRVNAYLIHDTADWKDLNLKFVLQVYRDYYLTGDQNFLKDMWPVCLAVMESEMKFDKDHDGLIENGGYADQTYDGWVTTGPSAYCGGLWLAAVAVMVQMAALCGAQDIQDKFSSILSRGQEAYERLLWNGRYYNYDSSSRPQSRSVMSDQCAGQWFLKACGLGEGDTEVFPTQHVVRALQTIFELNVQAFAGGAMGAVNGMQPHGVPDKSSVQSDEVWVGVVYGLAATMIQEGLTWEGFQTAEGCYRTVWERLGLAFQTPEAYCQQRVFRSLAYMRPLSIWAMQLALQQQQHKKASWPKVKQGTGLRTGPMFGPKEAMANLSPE
test.summary: GBA2 activity, membrane fraction from Gaucher spleen, 4-MU-β-glucoside substrate;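 note: Read-out is fluorimetric quantification of released 4-MU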
Type: biochemical
measured.endpoint: IC50 (nM)

molecule: OC[C@@H]1[C@@H](O)[C@H](O)[C@@H](O)CN1CC(F)(F)CCCOCc1ccc(-c2ccccc2)cc1 [Compound 11]
tgt: GBA2 (Homo sapiens, UniProt Q9HCG7)
measured.endpoint: IC50
measured.number: 2
//
molecule: OC[C@@H]1[C@@H](O)[C@H](O)[C@@H](O)CN1CCCC(F)(F)COCc1ccc(-c2ccccc2)cc1 [Compound 10]
tgt: GBA2 (Homo sapiens, UniProt Q9HCG7)
measured.endpoint: IC50
measured.number: 2
//
molecule: OC[C@@H]1[C@@H](O)[C@H](O)[C@@H](O)CN1CCCCCOCc1ccc(-c2ccc3c(c2)OCCCO3)cc1 [Compound 19]
tgt: GBA2 (Homo sapiens, UniProt Q9HCG7)
measured.endpoint: IC50
measured.number: 10
//
molecule: OC[C@@H]1[C@@H](O)[C@H](O)[C@@H](O)CN1CCCCCOCc1ccc(-c2ccc3c(c2)OCCO3)cc1 [Compound 20]
tgt: GBA2 (Homo sapiens, UniProt Q9HCG7)
measured.endpoint: IC50
measured.number: 10
//
molecule: OC[C@@H]1[C@@H](O)[C@H](O)[C@@H](O)CN1CCCCCOCc1ccc(-c2cccc(F)c2)cc1 [Compound 26]
tgt: GBA2 (Homo sapiens, UniProt Q9HCG7)
measured.endpoint: IC50
measured.number: 2
//
molecule: OC[C@@H]1[C@@H](O)[C@H](O)[C@@H](O)CN1CCCCCOCc1ccc(-c2ccc3c(c2)OCO3)cc1 [Compound 21]
tgt: GBA2 (Homo sapiens, UniProt Q9HCG7)
measured.endpoint: IC50
measured.number: 10
//
molecule: COc1ccccc1-c1ccc(COCCCCCN2C[C@H](O)[C@@H](O)[C@H](O)[C@H]2CO)cc1 [Compound 31]
tgt: GBA2 (Homo sapiens, UniProt Q9HCG7)
measured.endpoint: IC50
measured.number: 0.7

###

tgt: GBA1 (Homo sapiens, UniProt P04062, R534H)
Construct: purchased Sanofi (Cerezyme)
Sequence (P04062 40-536 R534H): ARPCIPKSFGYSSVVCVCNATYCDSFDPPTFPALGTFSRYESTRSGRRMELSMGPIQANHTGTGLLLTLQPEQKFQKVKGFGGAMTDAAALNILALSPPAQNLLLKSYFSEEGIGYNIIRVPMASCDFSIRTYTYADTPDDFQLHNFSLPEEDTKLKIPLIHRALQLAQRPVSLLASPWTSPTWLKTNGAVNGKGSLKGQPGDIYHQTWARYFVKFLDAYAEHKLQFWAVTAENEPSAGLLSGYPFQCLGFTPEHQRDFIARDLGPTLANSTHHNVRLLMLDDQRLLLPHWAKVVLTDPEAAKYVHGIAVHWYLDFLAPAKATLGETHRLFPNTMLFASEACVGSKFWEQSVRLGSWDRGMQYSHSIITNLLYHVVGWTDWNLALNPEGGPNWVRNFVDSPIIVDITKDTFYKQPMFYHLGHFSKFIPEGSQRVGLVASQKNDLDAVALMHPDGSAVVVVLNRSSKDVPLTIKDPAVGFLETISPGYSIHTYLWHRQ
test.summary: GBA1 activity, recombinant human enzyme (Cerezyme), 4-MU-β-glucoside substrate;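 note: enzyme activity read out as fluorescence of the 4-MU released from the substrate, measured on a fluorimeter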
Format: biochemical
measured.endpoint: log10(IC50) (log10 of the value in nM)

chemical.structure: OC[C@@H]1[C@@H](O)[C@H](O)[C@@H](O)CN1CCCCCOCc1ccc(-c2cccnc2)cc1
log10(IC50): 3.48
//
chemical.structure: OC[C@H]1[C@@H](O)[C@H](O)[C@@H](O)CN1CCCCCOCc1ccc(-c2ccccc2)cc1F
log10(IC50): 3.90
//
chemical.structure: OC[C@@H]1[C@@H](O)[C@H](O)[C@@H](O)CN1CCCCCOCc1ccc(-c2ccc(Cl)cc2)cc1
log10(IC50): 2.70
//
chemical.structure: OC[C@@H]1[C@@H](O)[C@H](O)[C@@H](O)CN1CCCCCOCc1ccc(-c2ccccc2)c(C(F)(F)F)c1
log10(IC50): 2.00
//
chemical.structure: OC[C@H]1[C@@H](O)[C@H](O)[C@@H](O)CN1CCCCCOCc1ccc(-c2ccccc2)c(C(F)(F)F)c1
log10(IC50): 3.78
//
chemical.structure: OC[C@H]1[C@@H](O)[C@H](O)[C@@H](O)CN1CC(F)(F)CCCOCc1ccc(-c2ccccc2)cc1
log10(IC50): 5.70
//
chemical.structure: OC[C@@H]1[C@@H](O)[C@H](O)[C@@H](O)CN1CCCC(F)(F)COCc1ccc(-c2ccccc2)cc1
log10(IC50): 4.10
//
chemical.structure: C[C@H](OCCCCCN1C[C@H](O)[C@@H](O)[C@H](O)[C@H]1CO)c1ccc(-c2ccccc2)cc1
log10(IC50): 4.00
//
chemical.structure: N#Cc1cccc(-c2ccc(COCCCCCN3C[C@H](O)[C@@H](O)[C@H](O)[C@H]3CO)cc2)c1
log10(IC50): 2.85
//
chemical.structure: Cc1cccc(-c2ccc(COCCCCCN3C[C@H](O)[C@@H](O)[C@H](O)[C@H]3CO)cc2)c1
log10(IC50): 2.40
//
chemical.structure: OC[C@@H]1[C@@H](O)[C@H](O)[C@@H](O)CN1CCCCCOCc1ccc(-c2ccncc2)cc1
log10(IC50): 3.30
//
chemical.structure: C[C@H](OCCCCCN1C[C@H](O)[C@@H](O)[C@H](O)[C@@H]1CO)c1ccc(-c2ccccc2)cc1
log10(IC50): 4.00
//
chemical.structure: Cc1ccccc1-c1ccc(COCCCCCN2C[C@H](O)[C@@H](O)[C@H](O)[C@H]2CO)cc1
log10(IC50): 1.85
//
chemical.structure: OC[C@@H]1[C@@H](O)[C@H](O)[C@@H](O)CN1CCCCCOCc1ccc(-c2ccc(F)cc2)cc1
log10(IC50): 2.60
//
chemical.structure: C[C@@H](OCCCCCN1C[C@H](O)[C@@H](O)[C@H](O)[C@H]1CO)c1ccc(-c2ccccc2)cc1
log10(IC50): 4.00
